STUDY_TARGET: furin, P09958;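 also: purified furin at 1:10 enzyme:substrate in 50 mM HEPES pH 7.5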
Sequence (P09958 whole entry): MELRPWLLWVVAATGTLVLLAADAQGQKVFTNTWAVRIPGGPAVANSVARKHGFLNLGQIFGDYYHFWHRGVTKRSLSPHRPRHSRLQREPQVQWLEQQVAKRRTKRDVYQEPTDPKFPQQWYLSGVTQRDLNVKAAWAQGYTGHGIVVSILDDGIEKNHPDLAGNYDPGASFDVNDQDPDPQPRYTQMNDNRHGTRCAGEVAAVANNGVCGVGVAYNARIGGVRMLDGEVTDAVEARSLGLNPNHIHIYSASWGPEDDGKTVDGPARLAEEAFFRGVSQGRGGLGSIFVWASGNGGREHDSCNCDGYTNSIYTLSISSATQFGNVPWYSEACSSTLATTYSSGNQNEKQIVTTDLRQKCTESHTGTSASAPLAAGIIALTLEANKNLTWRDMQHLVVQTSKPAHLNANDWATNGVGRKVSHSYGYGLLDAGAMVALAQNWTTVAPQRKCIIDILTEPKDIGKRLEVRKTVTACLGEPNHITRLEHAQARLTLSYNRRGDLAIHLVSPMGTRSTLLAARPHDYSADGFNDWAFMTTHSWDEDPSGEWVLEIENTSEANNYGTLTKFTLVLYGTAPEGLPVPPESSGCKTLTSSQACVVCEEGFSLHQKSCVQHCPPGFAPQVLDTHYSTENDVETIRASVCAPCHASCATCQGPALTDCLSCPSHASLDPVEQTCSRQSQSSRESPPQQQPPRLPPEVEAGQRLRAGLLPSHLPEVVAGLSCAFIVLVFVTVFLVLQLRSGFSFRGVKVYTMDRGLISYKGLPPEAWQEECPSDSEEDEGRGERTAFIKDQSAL
ASSAY_SUMMARY: furin cleavage Z-score vs untreated control; higher = more cleavage, active = 3.5 or more, inactive = 1 or less, 8 variable residues between constant flanks
DETAILS: 15 min
The list shows a part of the results. No count for the full screen is at hand.
Entries and their measured furin cleavage Z-score follow.
QUANTITY: furin cleavage Z-score

> print(dat)
                 sequence.input  experimental.result
1  CARPRRETCHAGNASASA [FS-2358]                 6.02
2    CARPYCWHYPAGNASASA [HC402]               -0.342
3   CAIDVVCCSMAGNASASA [HC2104]                 0.23
4  CARRGRSRSRAGNASASA [FS-2774]               -0.261
5   CATREVPCHRAGNASASA [HC2438]                 2.06
6   CAYRARLSRGAGNASASA [FS-636]                 2.55
7  CANTARQRRAAGNASASA [FS-1548]                 11.6
8  CARRGRFKGLAGNASASA [FS-2773]                0.257
